# study.target: human TLR7 (hTLR7) (Homo sapiens, UniProt Q9NYK1)
# Sequence (Q9NYK1 27-1049): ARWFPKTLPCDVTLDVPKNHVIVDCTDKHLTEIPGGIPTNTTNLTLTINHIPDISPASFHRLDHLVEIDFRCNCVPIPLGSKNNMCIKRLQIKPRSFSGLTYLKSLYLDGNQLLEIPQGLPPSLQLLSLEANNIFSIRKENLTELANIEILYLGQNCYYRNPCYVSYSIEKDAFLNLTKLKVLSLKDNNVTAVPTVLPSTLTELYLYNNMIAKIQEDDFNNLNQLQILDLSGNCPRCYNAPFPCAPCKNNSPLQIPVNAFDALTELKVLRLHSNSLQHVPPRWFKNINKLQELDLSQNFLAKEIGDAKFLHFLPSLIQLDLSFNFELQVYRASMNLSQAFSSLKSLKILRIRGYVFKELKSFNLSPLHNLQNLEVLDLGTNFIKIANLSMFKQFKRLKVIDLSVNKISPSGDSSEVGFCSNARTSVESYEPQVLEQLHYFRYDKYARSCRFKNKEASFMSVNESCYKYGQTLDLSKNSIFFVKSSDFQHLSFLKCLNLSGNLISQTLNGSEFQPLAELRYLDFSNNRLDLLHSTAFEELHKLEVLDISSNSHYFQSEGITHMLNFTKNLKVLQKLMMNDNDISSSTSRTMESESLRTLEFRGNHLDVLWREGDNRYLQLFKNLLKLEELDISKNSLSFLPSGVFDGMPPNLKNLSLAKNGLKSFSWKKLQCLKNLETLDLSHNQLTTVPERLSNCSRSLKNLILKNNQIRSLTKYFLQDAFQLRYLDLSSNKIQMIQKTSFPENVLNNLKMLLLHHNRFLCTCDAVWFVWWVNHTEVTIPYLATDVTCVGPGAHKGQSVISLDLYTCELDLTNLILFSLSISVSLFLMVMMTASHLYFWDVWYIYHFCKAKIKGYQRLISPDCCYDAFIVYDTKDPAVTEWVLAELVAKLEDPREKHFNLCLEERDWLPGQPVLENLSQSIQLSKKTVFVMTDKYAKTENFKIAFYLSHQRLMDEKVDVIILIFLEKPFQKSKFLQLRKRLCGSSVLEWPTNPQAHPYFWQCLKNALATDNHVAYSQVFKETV
# experiment.summary: Human TLR7 agonist activity assay (HEK-Blue TLR7 SEAP reporter)
# setup.conditions: HEK-Blue TLR7 cells, 18 h incubation, Quanti-Blue, OD 620 nm, some values average of multiple measurements
experimental.readout: EC50 (nM)
Entry rule: numbers only, all in nM.

Answered examples (3):
>  <molecule>
CCCCN(CCO)c1nc(N)nc2cn(Cc3ccc(CN[C@H]4CCOC4)cc3C(F)F)nc12

>  <study.target>
human TLR7 (hTLR7) (Homo sapiens, UniProt Q9NYK1)

>  <EC50 / nM>
1910

$$$$
>  <molecule>
CCCCN(CCO)c1nc(N)nc2cn(Cc3ccc(CN[C@@H]4CCOC4)c4oc(C)nc34)nc12

>  <study.target>
human TLR7 (hTLR7) (Homo sapiens, UniProt Q9NYK1)

>  <EC50 / nM>
1630

$$$$
>  <molecule>
CCCCN(CCO)c1nc(N)nc2cn(Cc3ccc(CN[C@H]4C[C@H]5COC[C@H]54)cc3OC)nc12

>  <study.target>
human TLR7 (hTLR7) (Homo sapiens, UniProt Q9NYK1)

>  <EC50 / nM>
614

$$$$

Noted for CCCCN(CCO)c1nc(N)nc2cn(Cc3ccc(CNC4CCC4)cc3NC)nc12 : its EC50 reads 2190

For record CCCCN(CCO)c1nc(N)nc2cn(Cc3ccc(CN[C@@H]4CCOC4)cc3)nc12 the listed EC50 is 1160
